Assay: recombinant UMI read abundance after kanamycin selection (control-corrected) (log10(CPM+1)); higher = more efficient recombination; extreme values may be limits of the assay; sequences stand for … in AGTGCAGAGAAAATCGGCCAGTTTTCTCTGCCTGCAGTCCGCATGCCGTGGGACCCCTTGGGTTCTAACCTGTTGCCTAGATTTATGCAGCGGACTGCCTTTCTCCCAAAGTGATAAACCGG…AGGTTGGTTTCACT; site = the 11-nt donor;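 note: IS621 bridge recombinase in Escherichia coli cells against a fixed T5 target plasmid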
Observable: recombinant UMI read abundance (log10)
// print number alone

The sequence listed as GCTGGAACATGGACCGGTTTTCCCGGTAATCCGTATTTGAC (site GCTGGAACTGT) has a reported recombinant UMI read abundance (log10) of 1.62

For TAGCCAGCATGGACCGGTTTTCCCGGTAATCCGTATTTGAA (site TAGCAAGCTTT) the sequence record lists recombinant UMI read abundance (log10) as 0.0207

Value of recombinant UMI read abundance (log10) reported for the sequence ATCGAAGCATGGACCGGTTTTCCCGGTAATCCGTATTTGAG (site ATCTAAGCTCT) is 0.58

Summary for this sequence, GGCAACCCATGGACCGGTTTTCCCGGTAATCCGTATTTGAA (site GGCAAACCTTT) : recombinant UMI read abundance (log10) is 0

recombinant UMI read abundance (log10) reading for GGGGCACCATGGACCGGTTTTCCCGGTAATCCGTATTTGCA (site GGGGCACCTGG) : 0

For TATTCCCCATGGACCGGTTTTCCCGGTAATCCGTATTTGTA (site TATTCCCCTTA) the sequence record lists recombinant UMI read abundance (log10) as 0.0102

Input TAGCGCTCATGGACCGGTTTTCCCGGTAATCCGTATTTGCA (site TAGCGCTCTTG) . Output recombinant UMI read abundance (log10): 2.33

Item: TCGAGGACATGGACCGGTTTTCCCGGTAATCCGTATTTGGC (site TCGAGGACTGC) | recombinant UMI read abundance (log10): 0

// recombinant UMI read abundance (log10) lookup, sequence = CTCTGGACATGGACCGGTTTTCCCGGTAATCCGTATTTGGA (site TGAGTCTCTCA) , result: 0

Field recombinant UMI read abundance (log10) (entry TCCTAGCCATGGACCGGTTTTCCCGGTAATCCGTATTTGCC (site CCCTAGCCTGG) ) reads 0

Summary for this sequence, GGAGGTACATGGACCGGTTTTCCCGGTAATCCGTATTTGAC (site GCAGGTACTGT) : recombinant UMI read abundance (log10) is 0.553

Short answer for CCAGCAGCATGGACCGGTTTTCCCGGTAATCCGTATTTGCT (site CAAGCAGCTAG) : recombinant UMI read abundance (log10) was 0

Lookup result for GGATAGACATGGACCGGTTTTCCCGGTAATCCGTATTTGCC (site GGATAGACTGG) ; measured recombinant UMI read abundance (log10): 2.73

response.value for TACACCTCATGGACCGGTTTTCCCGGTAATCCGTATTTGAA (site TACACCTCTTT) (field: recombinant UMI read abundance (log10)) = 0.804

CGTATGTCATGGACCGGTTTTCCCGGTAATCCGTATTTGGT (site CGTATGTCTAC) yielded recombinant UMI read abundance (log10) of 1.59

response.value for GGAGTGTCATGGACCGGTTTTCCCGGTAATCCGTATTTGGT (site GGAGTGCCTAC) (field: recombinant UMI read abundance (log10)) = 0.00939

// recombinant UMI read abundance (log10) lookup, sequence = AGGCTTCCATGGACCGGTTTTCCCGGTAATCCGTATTTGCG (site AGGCTTCCTCG) , result: 0.745
